- Study System: Yer064c (UniProt P40041)
- Sequence: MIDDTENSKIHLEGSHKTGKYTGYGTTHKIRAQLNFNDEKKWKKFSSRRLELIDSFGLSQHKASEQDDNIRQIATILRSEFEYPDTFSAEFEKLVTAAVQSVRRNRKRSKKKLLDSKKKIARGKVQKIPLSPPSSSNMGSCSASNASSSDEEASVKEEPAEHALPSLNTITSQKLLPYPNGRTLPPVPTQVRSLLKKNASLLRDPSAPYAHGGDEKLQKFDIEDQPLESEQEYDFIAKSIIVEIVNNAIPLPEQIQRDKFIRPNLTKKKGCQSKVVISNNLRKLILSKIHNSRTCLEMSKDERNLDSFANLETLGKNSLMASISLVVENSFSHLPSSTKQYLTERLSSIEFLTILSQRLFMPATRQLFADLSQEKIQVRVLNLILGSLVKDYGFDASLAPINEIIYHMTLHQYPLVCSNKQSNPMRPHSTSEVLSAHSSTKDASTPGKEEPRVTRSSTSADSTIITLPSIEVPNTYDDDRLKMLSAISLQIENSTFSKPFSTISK
- Test Protocol: PBM E-score (8-mer binding enrichment) (E-score (-0.5 to 0.5)); higher = stronger / more preferred TF binding
- Protocol Conditions: protein concentration: 200 nM; construct: GST-full length
The full ranking holds about 33,000 sequences; the median of “E-score (-0.5 to 0.5)” is about -0.036, and the highest 2% start at about 0.37. The sample as a whole holds a higher share of the highest values than the screen did.
# label = t if PBM E-score >= 0.2 else f

>  <Sequence Content>
TTAGTCAA

>  <Study System>
Yer064c (UniProt P40041)

>  <Discrete Label>
t

$$$$
>  <Sequence Content>
CCGCCGCA

>  <Study System>
Yer064c (UniProt P40041)

>  <Discrete Label>
f

$$$$
>  <Sequence Content>
ACATAGTC

>  <Study System>
Yer064c (UniProt P40041)

>  <Discrete Label>
t

$$$$
>  <Sequence Content>
CACTCGAA

>  <Study System>
Yer064c (UniProt P40041)

>  <Discrete Label>
t

$$$$
>  <Sequence Content>
CATTAGGA

>  <Study System>
Yer064c (UniProt P40041)

>  <Discrete Label>
f

$$$$
>  <Sequence Content>
TTAGTGAA

>  <Study System>
Yer064c (UniProt P40041)

>  <Discrete Label>
f

$$$$
>  <Sequence Content>
GCCGTGCC

>  <Study System>
Yer064c (UniProt P40041)

>  <Discrete Label>
f

$$$$
>  <Sequence Content>
GACTCGAC

>  <Study System>
Yer064c (UniProt P40041)

>  <Discrete Label>
t

$$$$
>  <Sequence Content>
CACTACCC

>  <Study System>
Yer064c (UniProt P40041)

>  <Discrete Label>
f

$$$$
>  <Sequence Content>
GACTACCA

>  <Study System>
Yer064c (UniProt P40041)

>  <Discrete Label>
t

$$$$
>  <Sequence Content>
CCTGGAAG

>  <Study System>
Yer064c (UniProt P40041)

>  <Discrete Label>
f

$$$$
>  <Sequence Content>
CCATAGTC

>  <Study System>
Yer064c (UniProt P40041)

>  <Discrete Label>
t

$$$$
>  <Sequence Content>
AGGCTACG

>  <Study System>
Yer064c (UniProt P40041)

>  <Discrete Label>
f

$$$$
>  <Sequence Content>
CGGCTACA

>  <Study System>
Yer064c (UniProt P40041)

>  <Discrete Label>
f

$$$$
>  <Sequence Content>
TACGTCAA

>  <Study System>
Yer064c (UniProt P40041)

>  <Discrete Label>
f

$$$$
>  <Sequence Content>
AAATCCCA

>  <Study System>
Yer064c (UniProt P40041)

>  <Discrete Label>
f

$$$$
>  <Sequence Content>
AACTACCC

>  <Study System>
Yer064c (UniProt P40041)

>  <Discrete Label>
f

$$$$
>  <Sequence Content>
GACTACCC

>  <Study System>
Yer064c (UniProt P40041)

>  <Discrete Label>
t

$$$$
>  <Sequence Content>
CTCAGATA

>  <Study System>
Yer064c (UniProt P40041)

>  <Discrete Label>
t

$$$$
>  <Sequence Content>
CAAAAGAG

>  <Study System>
Yer064c (UniProt P40041)

>  <Discrete Label>
f

$$$$
>  <Sequence Content>
CGGTTTAG

>  <Study System>
Yer064c (UniProt P40041)

>  <Discrete Label>
f

$$$$
>  <Sequence Content>
TACTACCA

>  <Study System>
Yer064c (UniProt P40041)

>  <Discrete Label>
f

$$$$

----------
Entries and their PBM E-score
- Study System: Yer064c (UniProt P40041)
- Sequence: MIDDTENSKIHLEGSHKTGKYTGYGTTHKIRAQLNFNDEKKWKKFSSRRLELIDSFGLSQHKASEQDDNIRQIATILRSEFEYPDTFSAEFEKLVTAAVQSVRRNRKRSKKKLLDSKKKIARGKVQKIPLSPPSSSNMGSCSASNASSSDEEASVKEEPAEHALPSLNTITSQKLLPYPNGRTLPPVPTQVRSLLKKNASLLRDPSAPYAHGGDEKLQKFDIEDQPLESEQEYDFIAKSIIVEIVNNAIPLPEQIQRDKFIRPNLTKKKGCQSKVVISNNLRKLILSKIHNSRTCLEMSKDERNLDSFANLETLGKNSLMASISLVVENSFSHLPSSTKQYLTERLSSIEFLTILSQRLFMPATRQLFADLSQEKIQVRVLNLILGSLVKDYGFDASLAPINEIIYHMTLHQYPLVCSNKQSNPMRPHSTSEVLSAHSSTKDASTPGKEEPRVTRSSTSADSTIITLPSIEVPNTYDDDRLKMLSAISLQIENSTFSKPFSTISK
- Test Protocol: PBM E-score (8-mer binding enrichment) (E-score (-0.5 to 0.5)); higher = stronger / more preferred TF binding
- Protocol Conditions: protein concentration: 200 nM; construct: GST-full length
The full ranking holds about 33,000 sequences; the median of “E-score (-0.5 to 0.5)” is about -0.036, and the highest 2% start at about 0.37. For the sample, the highest values were picked, then their nearest neighbours and some sequences at random.
Parameter Measured: PBM E-score

>  <Sequence Content>
ATTGGGAC

>  <Study System>
Yer064c (UniProt P40041)

>  <Parameter Measured>
PBM E-score

>  <Quantitative Result>
0.0416

$$$$
>  <Sequence Content>
CCGACAGC

>  <Study System>
Yer064c (UniProt P40041)

>  <Parameter Measured>
PBM E-score

>  <Quantitative Result>
-0.394

$$$$
>  <Sequence Content>
AAGGAACG

>  <Study System>
Yer064c (UniProt P40041)

>  <Parameter Measured>
PBM E-score

>  <Quantitative Result>
-0.167

$$$$
>  <Sequence Content>
CATGATCC

>  <Study System>
Yer064c (UniProt P40041)

>  <Parameter Measured>
PBM E-score

>  <Quantitative Result>
0.0741

$$$$
>  <Sequence Content>
AATGATTC

>  <Study System>
Yer064c (UniProt P40041)

>  <Parameter Measured>
PBM E-score

>  <Quantitative Result>
0.464

$$$$
>  <Sequence Content>
CATGATTA

>  <Study System>
Yer064c (UniProt P40041)

>  <Parameter Measured>
PBM E-score

>  <Quantitative Result>
0.453

$$$$
>  <Sequence Content>
ACTGATTC

>  <Study System>
Yer064c (UniProt P40041)

>  <Parameter Measured>
PBM E-score

>  <Quantitative Result>
0.319

$$$$
>  <Sequence Content>
CCTGATTC

>  <Study System>
Yer064c (UniProt P40041)

>  <Parameter Measured>
PBM E-score

>  <Quantitative Result>
0.399

$$$$
>  <Sequence Content>
AGTCATCA

>  <Study System>
Yer064c (UniProt P40041)

>  <Parameter Measured>
PBM E-score

>  <Quantitative Result>
0.485

$$$$
>  <Sequence Content>
AGTCATCG

>  <Study System>
Yer064c (UniProt P40041)

>  <Parameter Measured>
PBM E-score

>  <Quantitative Result>
0.492

$$$$
>  <Sequence Content>
CTTGATTC

>  <Study System>
Yer064c (UniProt P40041)

>  <Parameter Measured>
PBM E-score

>  <Quantitative Result>
0.324

$$$$
>  <Sequence Content>
CCTGATGC

>  <Study System>
Yer064c (UniProt P40041)

>  <Parameter Measured>
PBM E-score

>  <Quantitative Result>
-0.0643

$$$$
>  <Sequence Content>
CATGATGA

>  <Study System>
Yer064c (UniProt P40041)

>  <Parameter Measured>
PBM E-score

>  <Quantitative Result>
0.261

$$$$
>  <Sequence Content>
CATGATTC

>  <Study System>
Yer064c (UniProt P40041)

>  <Parameter Measured>
PBM E-score

>  <Quantitative Result>
0.457

$$$$
>  <Sequence Content>
TAGACTCA

>  <Study System>
Yer064c (UniProt P40041)

>  <Parameter Measured>
PBM E-score

>  <Quantitative Result>
0.413

$$$$
>  <Sequence Content>
AAGACTGA

>  <Study System>
Yer064c (UniProt P40041)

>  <Parameter Measured>
PBM E-score

>  <Quantitative Result>
0.347

$$$$
>  <Sequence Content>
AACGGAAC

>  <Study System>
Yer064c (UniProt P40041)

>  <Parameter Measured>
PBM E-score

>  <Quantitative Result>
-0.134

$$$$
>  <Sequence Content>
TATACTCA

>  <Study System>
Yer064c (UniProt P40041)

>  <Parameter Measured>
PBM E-score

>  <Quantitative Result>
0.317

$$$$
>  <Sequence Content>
ATTCATCC

>  <Study System>
Yer064c (UniProt P40041)

>  <Parameter Measured>
PBM E-score

>  <Quantitative Result>
0.119

$$$$
>  <Sequence Content>
GAGACTTA

>  <Study System>
Yer064c (UniProt P40041)

>  <Parameter Measured>
PBM E-score

>  <Quantitative Result>
0.24

$$$$
>  <Sequence Content>
GAGACTGA

>  <Study System>
Yer064c (UniProt P40041)

>  <Parameter Measured>
PBM E-score

>  <Quantitative Result>
0.28

$$$$
>  <Sequence Content>
AAGACTCG

>  <Study System>
Yer064c (UniProt P40041)

>  <Parameter Measured>
PBM E-score

>  <Quantitative Result>
0.373

$$$$
